Assay: recombinant UMI read abundance after kanamycin selection (control-corrected) (log10(CPM+1)); higher = more efficient recombination; extreme values may be limits of the assay; sequences stand for … in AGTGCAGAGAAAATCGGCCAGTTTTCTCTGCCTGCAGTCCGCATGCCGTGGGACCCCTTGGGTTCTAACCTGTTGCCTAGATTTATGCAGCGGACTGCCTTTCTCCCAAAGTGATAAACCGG…AGGTTGGTTTCACT; site = the 11-nt donor;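 also: IS621 bridge recombinase in Escherichia coli cells against a fixed T5 target plasmid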
Classification field: enter rule met for recombinant UMI read abundance (log10) values not below 0.1, rule not met for values below it.

Req: Kindly determine if recombinant UMI read abundance (log10) recorded for AAAAAGGCATGGACCGGTTTTCCCGGTAATCCGTATTTGCT (site AGAAAGGCTAG) is above or exactly 0.1.
Resp: rule met

Req: Subsequent entry: CCCCATACATGGACCGGTTTTCCCGGTAATCCGTATTTGTA (site CCCCAAACTTA)
Resp: rule not met

Req: Subsequent entry: GATTGGACATGGACCGGTTTTCCCGGTAATCCGTATTTGAC (site GATTGGACTGC)
Resp: rule not met

Req: Subsequent entry: TTTACGGCATGGACCGGTTTTCCCGGTAATCCGTATTTGCT (site TTTTCGGCTAG)
Resp: rule not met

Req: Subsequent entry: GAACGTACATGGACCGGTTTTCCCGGTAATCCGTATTTGCT (site GAACGTACTAG)
Resp: rule met

Req: Subsequent entry: GTACGTACATGGACCGGTTTTCCCGGTAATCCGTATTTGAC (site GTAGGTACTGT)
Resp: rule not met

Req: Subsequent entry: CAAACGACATGGACCGGTTTTCCCGGTAATCCGTATTTGTT (site CAAACGACTAA)
Resp: rule met

Req: Subsequent entry: CCGTTTACATGGACCGGTTTTCCCGGTAATCCGTATTTGCT (site CCGTGTACTAG)
Resp: rule not met

Req: Subsequent entry: AGGCGACCATGGACCGGTTTTCCCGGTAATCCGTATTTGTT (site AGGCGACCTAA)
Resp: rule not met

Req: Subsequent entry: GTGGGGGCATGGACCGGTTTTCCCGGTAATCCGTATTTGTG (site GTGGGGGCTCA)
Resp: rule met

Req: Subsequent entry: CTTCGTCCATGGACCGGTTTTCCCGGTAATCCGTATTTGTT (site CTTCGTCCTAA)
Resp: rule not met

Req: Subsequent entry: CCCCACTCATGGACCGGTTTTCCCGGTAATCCGTATTTGAC (site CCCCACTCTGT)
Resp: rule met

Req: Subsequent entry: ACTAGTGCATGGACCGGTTTTCCCGGTAATCCGTATTTGAT (site ACTAGTGCTAT)
Resp: rule met

Req: Subsequent entry: CCCTAGCCATGGACCGGTTTTCCCGGTAATCCGTATTTGCC (site CCGTAGCCTGG)
Resp: rule not met

Req: Subsequent entry: GGATCGTCATGGACCGGTTTTCCCGGTAATCCGTATTTGCC (site GGATCGTCTGG)
Resp: rule met

Req: Subsequent entry: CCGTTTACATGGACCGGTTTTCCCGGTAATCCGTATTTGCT (site CCGTTAACTAG)
Resp: rule not met

Req: Subsequent entry: GTGCATGCATGGACCGGTTTTCCCGGTAATCCGTATTTGGG (site GTGCATGCTTC)
Resp: rule not met
